Observed IC50 values for Tacaribe virus are listed in what follows.

structureString | measureUnit | IC50
C(CNC12CC3CC(CC(C3)C1)C2)NC12CC3CC(CC(C3)C1)C2 | µg/mL | 6
ClN(CCN(Cl)C12CC3CC(CC(C3)C1)C2)C12CC3CC(CC(C3)C1)C2 | µg/mL | 17

---

# Lookup of reported TC50 keyed by entry
tested on: Vaccinia virus, WR strain; settings: toxic concentration in the Vaccinia virus screen

molecule | measureUnit | qualifierOperator | TC50
NC(=O)c1ncn([C@@H]2O[C@H](CO)[C@@H](O)[C@H]2O)n1 [Ribivirin, reference compound] | µg/mL | > | 100
C(CNC12CC3CC(CC(C3)C1)C2)NC12CC3CC(CC(C3)C1)C2 [Compound 6] | µg/mL | = | 5.58
Nc1ccn(C[C@@H](CO)OCP(=O)(O)O)c(=O)n1 [Cidofir, reference compound] | µg/mL | > | 100
ClN(CCN(Cl)C12CC3CC(CC(C3)C1)C2)C12CC3CC(CC(C3)C1)C2 [Compound 7] | µg/mL | = | 63.40
